# assay.details: Noncompartmental pharmacokinetics after single oral doses in healthy volunteers
# Assay type: in vivo, human
# experimental.context: male, human; whole blood; single oral dose 100 mg; n = 4; geometric mean (CV%)
observation.type: Cmax (ng/mL)
Report the figure in ng/mL without appending any unit label.

Entry `NS(=O)(=O)c1ccc(N2CCCCS2(=O)=O)cc1` — recorded Cmax = 15900

---

# assay.details: Noncompartmental pharmacokinetics after single oral doses in healthy volunteers
# Type: in vivo, human
# experimental.context: male, human; whole blood; single oral dose 100 mg; n = 4; geometric mean (CV%); read-out: AUC(0‐inf)
observation.type: AUC (µg·h/mL)
Report the figure in µg·h/mL without appending any unit label.

Entry NS(=O)(=O)c1ccc(N2CCCCS2(=O)=O)cc1 [Sultiame] — recorded AUC = 4540

---

# assay.details: Noncompartmental pharmacokinetics after single oral doses in healthy volunteers
# Assay type: in vivo, human
# experimental.context: male, human; whole blood; single oral dose 50 mg; n = 4; geometric mean (CV%); read-out: t1/2 (converted)
observation.type: half-life (days)
Report the figure in days without appending any unit label.

Entry NS(=O)(=O)c1ccc(N2CCCCS2(=O)=O)cc1 [Sultiame] — recorded half-life = 13

---

# assay.details: Population PK compartmental analysis (two-compartment model with saturable ligand to receptor binding)
# Format: in vivo, human
# experimental.context: male, human, erythrocytes, oral, population estimate of final model; read-out: Very, cell (erythrocyte compartment) volume of distribution
# Method: A population PK analysis was also performed using a nonlinear mixed‐effect modeling approach (NONMEM version 7.4, ICON Development Solutions, Hanover MD, USA). […] F was not evaluated, making the model estimate apparent values for Vc/F and CL/F. The first‐order elimination rate constant from the central compartment was calculated as ke = (CL/F)/(Vc/F). […]
observation.type: Vd (L)
Report the figure in L without appending any unit label.

Entry `NS(=O)(=O)c1ccc(N2CCCCS2(=O)=O)cc1` — recorded Vd = 3.3

---

# assay.details: Noncompartmental pharmacokinetics after single oral doses in healthy volunteers
# Format: in vivo, human
# experimental.context: male, human; plasma; single oral dose 200 mg; n = 4; geometric mean (CV%); read-out: t1/2 (converted)
observation.type: half-life (h)
Report the figure in h without appending any unit label.

Entry NS(=O)(=O)c1ccc(N2CCCCS2(=O)=O)cc1 [Sultiame] — recorded half-life = 40

---

# assay.details: Noncompartmental pharmacokinetics after single oral doses in healthy volunteers
# Format: in vivo, human
# experimental.context: male, human; whole blood; single oral dose 100 mg; n = 4; read-out: Median tmax (range)
observation.type: Tmax (h)
Report the figure in h without appending any unit label.

Entry `NS(=O)(=O)c1ccc(N2CCCCS2(=O)=O)cc1` — recorded Tmax = 5.01

---

# assay.details: Noncompartmental pharmacokinetics after single oral doses in healthy volunteers
# Format: in vivo, human
# experimental.context: male, human; plasma; single oral dose 100 mg; n = 4; geometric mean (CV%); read-out: AUC(0‐inf)
observation.type: AUC (ng·h/mL)
Report the figure in ng·h/mL without appending any unit label.

Entry `NS(=O)(=O)c1ccc(N2CCCCS2(=O)=O)cc1` — recorded AUC = 8570

---

# assay.details: Noncompartmental pharmacokinetics after single oral doses in healthy volunteers
# Format: in vivo, human
# experimental.context: male, human; plasma; single oral dose 50 mg; n = 4; geometric mean (CV%)
observation.type: Cmax (ng/mL)
Report the figure in ng/mL without appending any unit label.

Entry `NS(=O)(=O)c1ccc(N2CCCCS2(=O)=O)cc1` — recorded Cmax = 20

---

# assay.details: Population PK compartmental analysis (two-compartment model with saturable ligand to receptor binding)
# Assay type: in vivo, human
# experimental.context: male, human, plasma, oral, population estimate of final model; read-out: Vc, central volume of distribution
observation.type: Vd (L)
Report the figure in L without appending any unit label.

Entry `NS(=O)(=O)c1ccc(N2CCCCS2(=O)=O)cc1` — recorded Vd = 64.8

---

# assay.details: Population PK compartmental analysis (two-compartment model with saturable ligand to receptor binding)
# Type: in vivo, human
# experimental.context: male, human, plasma, oral; bootstrap evaluation, median of 2000 replicates; read-out: CLplasma (converted)
observation.type: clearance (mL/min)
Report the figure in mL/min without appending any unit label.

Entry NS(=O)(=O)c1ccc(N2CCCCS2(=O)=O)cc1 [Sultiame] — recorded clearance = 166

---

# assay.details: Noncompartmental pharmacokinetics after single oral doses in healthy volunteers
# Assay type: in vivo, human
# experimental.context: male, human; plasma; single oral dose 200 mg; n = 4; geometric mean (CV%); read-out: AUC(0‐inf)
observation.type: AUC (ng·h/mL)
Report the figure in ng·h/mL without appending any unit label.

Entry `NS(=O)(=O)c1ccc(N2CCCCS2(=O)=O)cc1` — recorded AUC = 24000

---

# assay.details: Noncompartmental pharmacokinetics after single oral doses in healthy volunteers
# Format: in vivo, human
# experimental.context: male, human; whole blood; single oral dose 100 mg; n = 4; geometric mean (CV%); read-out: t1/2 (converted)
observation.type: half-life (h)
Report the figure in h without appending any unit label.

Entry `NS(=O)(=O)c1ccc(N2CCCCS2(=O)=O)cc1` — recorded half-life = 233

---

# assay.details: Noncompartmental pharmacokinetics after single oral doses in healthy volunteers
# Assay type: in vivo, human
# experimental.context: male, human; urine; single oral dose 100 mg; n = 4; geometric mean (CV%); read-out: Renal clearance (converted)
observation.type: CL renal (mL/min)
Report the figure in mL/min without appending any unit label.

Entry NS(=O)(=O)c1ccc(N2CCCCS2(=O)=O)cc1 [Sultiame] — recorded CL renal = 2.33
